Target: T1, biotin-hPP (human, N-terminal Biotin-Ahx-; C-terminal amide (-NH2))
T1 peptide: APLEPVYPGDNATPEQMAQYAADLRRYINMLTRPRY
Assay: BLI (ForteBio Blitz), biotinylated peptide on streptavidin sensor, scFv in solution
Metric Name: max signal (nm)

May I ask what max signal (nm) has been recorded for scFv-7 (human) (scFv, Human scFv from the Garvan-2 phage library; Whole entry used as named) scFv: EVQLLESGGGLVQPGGSLRLSCAASGFRFDYEDMGWVRQAPGKGLEWVSAIASDGDSTYYADSVKGRFTISRDNSKNTLYLQMNSLRAEDTAVYYCAKIYYDGAYRVFDYWGQGTLVTVSSGGGGSGGGGSGGGGSTDIQMTQSPSSLSASVGDRVTITCRASQSISSYLNWYQQKPGKAPKLLIYSASYLQSGVPSRFSGSGSGTDFTLTISSLQPEDFATYYCQQYSMLPTTFGQGTKVEIKR ?
< 0.2 nm
